target: T1, Human TIM-3 Human Fc tagged protein (human, fluorescently labeled with HiLyte Fluor 555 (sites not given)); assay: capture slide probed with labeled TIM-3-Fc;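 also: IgG from single CD138-enriched plasma cells, isolated from lymphocytes, immobilized on a derivatized glass slide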
T1 construct: Bought construct; also called TIM-3 protein tagged with human Fc; ACROBiosystems catalog no: TM3-H5258

- binder: "SCT-Fa046 (antibody, V domains shown, murine IgG) VH: EVQLQQSGPELVKPGASVKISCKASGYTFTDYNMHWVKQSHGKSLAWIGYIYPYNGGTGYNQKFKNKATLTVDDSSSTAYMDLRSLTSDDSAVYYCAREDYGSREWFAYWGQGTLVTVSA VL: DVVMTQTPLSLPVSLGDQASISCRSSQSLVHSNGNTYLYWYLQKPGQSPKLLIYKVSNRFSGVPDRFSGSGSGTDFTLKISRVEAEDLGVYFCSQSTHVPLTFGAGTKLELK"
  binding result: "binds"
- binder: "SCT-Fa005 (antibody, V domains shown, murine IgG) VH: EVHLQQSVAEVVRPGASVNLSCTVSGFNNKNTYMYWVKQRPEQGLEWIGIIDPANGNVKYAPKFQGKATITADTSSNTAYLQLSSLTSEDTAIYYCARGSSRLYYALDYWGQGTSVTVSS VL: DIVLTQSPASLAVSLGQRATISCRASESVDSYGNSFMHWYQQKPGQPPKLLIYRASNLESGIPARFSGSGSRTDFTLTIYPVEADDVATYYCQQSNEDPYTFGGGTKLEIK"
  binding result: "binds"

Source of measurements: patent US20230279105A1
